From: BigSolDB 2.1

# CONDITION DESCRIPTION: in chloroform, 315.12 K
MEASUREMENT LABEL: solubility (mole fraction)

Req: Note solubility (mole fraction) for the molecule shown: CC[C@@]1(O)C(=O)OCc2c1cc1n(c2=O)Cc2cc3ccccc3nc2-1
Resp: 0.000513

* * *

# CONDITION DESCRIPTION: in methanol, 316.53 K
MEASUREMENT LABEL: solubility (mole fraction)
Lab note: jot the number down without any unit.

Req: Supply solubility (mole fraction) value. Item: CC[C@@]1(O)C(=O)OCc2c1cc1n(c2=O)Cc2cc3ccccc3nc2-1
Resp: 4.78e-05

* * *

# CONDITION DESCRIPTION: in ethanol, 310.47 K
MEASUREMENT LABEL: solubility (mole fraction)

Req: Report measured solubility (mole fraction); entry is CC[C@@]1(O)C(=O)OCc2c1cc1n(c2=O)Cc2cc3ccccc3nc2-1
Resp: 3.06e-05
